assay summary: Powder dissolution, USP/NF paddle method with HPLC analysis
Type: physicochemical
test parameters: 30 min; 500 mg in 900 mL water, 37 °C, 75 rpm; replicate #3; trihydrate
Procedure: Dissolution analysis of amoxicillin trihydrate powder samples was carried out using the USP/NF paddle method at a rotational speed of 75 rpm. Ultrapure ELGA laboratory water (900 mL) was used as dissolution medium. Media were equilibrated to 37.0±0.5° C. prior to dissolution. […] Samples were collected at 0, 1, 3, 5, 10, 15, 30, 60 and 90 min, filtered through 0.2 μm filters and analyzed by HPLC. […]
measurement label: Amoxicillin released in solution #3 (%)

- molecule: "CC1(C)S[C@@H]2[C@H](NC(=O)[C@H](N)c3ccc(O)cc3)C(=O)N2[C@H]1C(=O)O.O.O.O [entry 5, amoxicillin trihydrate]"
  measurement label: "Amoxicillin released in solution #3"
  value measured: 96.17
- molecule: "CC1(C)S[C@@H]2[C@H](NC(=O)[C@H](N)c3ccc(O)cc3)C(=O)N2[C@H]1C(=O)O.O.O.O [entry 1, amoxicillin trihydrate]"
  measurement label: "Amoxicillin released in solution #3"
  value measured: 98.87
- molecule: "CC1(C)S[C@@H]2[C@H](NC(=O)[C@H](N)c3ccc(O)cc3)C(=O)N2[C@H]1C(=O)O.O.O.O [entry 4, amoxicillin trihydrate]"
  measurement label: "Amoxicillin released in solution #3"
  value measured: 91.85

###

assay summary: Powder dissolution, USP/NF paddle method with HPLC analysis
Assay type: physicochemical
test parameters: 15 min; 500 mg in 900 mL water, 37 °C, 75 rpm; mean of 3; trihydrate
Experimental: Dissolution analysis of amoxicillin trihydrate powder samples was carried out using the USP/NF paddle method at a rotational speed of 75 rpm. Ultrapure ELGA laboratory water (900 mL) was used as dissolution medium. Media were equilibrated to 37.0±0.5° C. prior to dissolution. […] Samples were collected at 0, 1, 3, 5, 10, 15, 30, 60 and 90 min, filtered through 0.2 μm filters and analyzed by HPLC. […]
measurement label: Amoxicillin released in solution Mean (%)

- molecule: "CC1(C)S[C@@H]2[C@H](NC(=O)[C@H](N)c3ccc(O)cc3)C(=O)N2[C@H]1C(=O)O.O.O.O [entry 6, amoxicillin trihydrate]"
  Amoxicillin released in solution Mean, %: 88.11
- molecule: "CC1(C)S[C@@H]2[C@H](NC(=O)[C@H](N)c3ccc(O)cc3)C(=O)N2[C@H]1C(=O)O.O.O.O [entry 5, amoxicillin trihydrate]"
  Amoxicillin released in solution Mean, %: 89.32
- molecule: "CC1(C)S[C@@H]2[C@H](NC(=O)[C@H](N)c3ccc(O)cc3)C(=O)N2[C@H]1C(=O)O.O.O.O [entry 4, amoxicillin trihydrate]"
  Amoxicillin released in solution Mean, %: 89.71
- molecule: "CC1(C)S[C@@H]2[C@H](NC(=O)[C@H](N)c3ccc(O)cc3)C(=O)N2[C@H]1C(=O)O.O.O.O [entry 3, amoxicillin trihydrate]"
  Amoxicillin released in solution Mean, %: 100.29
- molecule: "CC1(C)S[C@@H]2[C@H](NC(=O)[C@H](N)c3ccc(O)cc3)C(=O)N2[C@H]1C(=O)O.O.O.O [entry 1, amoxicillin trihydrate]"
  Amoxicillin released in solution Mean, %: 99.12
- molecule: "CC1(C)S[C@@H]2[C@H](NC(=O)[C@H](N)c3ccc(O)cc3)C(=O)N2[C@H]1C(=O)O.O.O.O [entry 2, amoxicillin trihydrate]"
  Amoxicillin released in solution Mean, %: 99.43
